target-of-assay: NS1 RBD H7N1 (Influenza A virus (avian H7N1; allele B), UniProt Q1PST0 1-73)
assay-name: competition EMSA; EC50app vs labelled AWFC01
assay-context: protein: recombinant; tags: N-His thrombin-cleaved (vector residues remain); chain copies: 2

| binder | IC50 / nM |
| --- | --- |
| ZKO (dsRNA) RNA 1: AGACAGCAUUAUGCUGUCUUU RNA 2: AGACAGCAUUAUGCUGUCUUU | 96 |

FYI, the data here is from paper PMC7552008.
